Biological target: Cyclin-dependent kinase 4 (Homo sapiens) (UniProt P11802)
Sequence (P11802 whole entry): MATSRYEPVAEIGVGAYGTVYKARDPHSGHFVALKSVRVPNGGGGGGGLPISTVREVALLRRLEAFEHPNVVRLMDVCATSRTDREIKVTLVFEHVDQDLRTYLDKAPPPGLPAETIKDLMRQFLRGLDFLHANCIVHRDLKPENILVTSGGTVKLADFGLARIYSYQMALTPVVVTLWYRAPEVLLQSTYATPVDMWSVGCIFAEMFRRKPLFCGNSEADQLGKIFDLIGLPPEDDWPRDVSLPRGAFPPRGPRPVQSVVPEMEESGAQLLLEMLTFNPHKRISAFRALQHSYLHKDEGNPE
Conditions: at 0.1 µM
Description: GSK_PKIS: CDK4/cyclinD mean inhibition at 0.1 uM [Nanosyn]
PROPERTY_MEASURED: inhibition (%)
Give bare numbers, in %.

Consider the worked cases shown below.
{"SMILES_STRUCTURE": "CS(=O)(=O)Nc1ccc(-c2ccc3c(NC(=O)C4CC4)n[nH]c3c2)cc1", "MEASUREMENT_UNIT": "%", "inhibition": 2.19}
{"SMILES_STRUCTURE": "COc1c(C(N)=O)cc(-c2ccc(Cl)cc2)cc1-c1ccc(S(N)(=O)=O)cc1", "MEASUREMENT_UNIT": "%", "inhibition": 3.98}
{"SMILES_STRUCTURE": "CS(=O)(=O)Nc1ccc(-c2cc(-c3ccccc3)cc(C(N)=O)c2N)cc1", "MEASUREMENT_UNIT": "%", "inhibition": 0.62}

Return reported inhibition values for all items listed beneath this line.
1. CS(=O)(=O)CCNCc1ccoc1-c1ccc2ncnc(Nc3ccc(OCc4ccccc4)cc3)c2c1
2. COc1cc2c(cc1Nc1nc(Nc3cccc(F)c3C(N)=O)c3cc[nH]c3n1)N(C(=O)CN1CCN(C(C)C)CC1)CC2

1: 0.34; 2: 1.15

---

Molecular target: RAF proto-oncogene serine/threonine-protein kinase (Homo sapiens);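 note: values are mean CRAF kinase inhibition from profiling of the GSK Published Kinase Inhibitor Set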
Settings: at 0.1 µM
Exercise: for every item that follows, state its recorded inhibition.
Answers are plain numbers, in %.

Consider the worked cases shown below.
{"SMILES_STRUCTURE": "CCCNc1cccc(-n2ncc3c(N/N=C/c4ccncc4)ncnc32)c1", "MEASUREMENT_UNIT": "%", "inhibition": -0.1}
{"SMILES_STRUCTURE": "CCN1CCC(C(=O)Nc2n[nH]c3nnc(-c4cccc(F)c4F)cc23)CC1", "MEASUREMENT_UNIT": "%", "inhibition": -4.36}
{"SMILES_STRUCTURE": "CNC(=O)c1cncc(/C=C/c2ccccc2C)c1", "MEASUREMENT_UNIT": "%", "inhibition": 5.82}

Return reported inhibition values for all items listed beneath this line.
1. CS(=O)(=O)Nc1ccc(-c2cc(-c3ccccc3)cc(C(N)=O)c2N)cc1
2. COc1c(C(N)=O)cc(-c2ccc(Cl)cc2)cc1-c1ccc(S(N)(=O)=O)cc1
3. Cc1nnc(-c2cccc(-c3ccc(C(=O)NCC4CC4)cc3)c2)o1

1. -0.86
2. 2.31
3. -0.41

Return reported inhibition values for all items listed beneath this line.
1. COc1cc(Nc2ncc(-c3ccccc3)o2)cc(OC)c1
2. FC(F)(F)CNc1nccc(-c2cnn3ncccc23)n1
3. COC(=O)Nc1nc2ccc(Oc3ccc(NC(=O)Nc4cc(C(F)(F)F)ccc4F)cc3)cc2s1
4. CCOc1ccc2c(-c3ccnc(Nc4cc(OC)cc(C(F)(F)F)c4)n3)cnn2n1

0.47
-1.22
8.71
-4.87

---

Exercise: for every item that follows, state its recorded inhibition.
Target: MAP kinase-activated protein kinase 2 (Homo sapiens) (UniProt P49137);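 note: values are mean inhibition from the GSK PKIS screen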
Sequence (P49137 whole entry, looked up): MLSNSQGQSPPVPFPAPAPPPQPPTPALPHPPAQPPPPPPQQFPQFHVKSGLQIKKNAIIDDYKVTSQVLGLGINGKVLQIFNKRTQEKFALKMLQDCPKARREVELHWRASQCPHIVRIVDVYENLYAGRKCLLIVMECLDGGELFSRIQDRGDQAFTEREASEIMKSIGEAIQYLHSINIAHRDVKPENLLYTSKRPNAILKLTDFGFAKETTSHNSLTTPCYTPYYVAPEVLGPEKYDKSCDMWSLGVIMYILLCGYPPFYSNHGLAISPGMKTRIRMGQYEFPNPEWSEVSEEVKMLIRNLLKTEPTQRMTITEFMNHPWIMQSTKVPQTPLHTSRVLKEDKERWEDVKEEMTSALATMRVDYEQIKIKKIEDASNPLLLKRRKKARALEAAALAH
Details: at 1 µM
Give bare numbers, in %.

Consider the worked cases shown below.
{"SMILES_STRUCTURE": "CS(=O)(=O)CCNCc1ccoc1-c1ccc2ncnc(Nc3ccc(OCc4ccccc4)cc3)c2c1", "inhibition / %": -0.91}
{"SMILES_STRUCTURE": "COC(=O)Nc1nc2ccc(Oc3ccc(NC(=O)Nc4cc(C(F)(F)F)ccc4F)cc3)cc2s1", "inhibition / %": -0.42}

With those in mind, consider the next compound.
Any idea what its inhibition is? The compound is `COc1cc2c(cc1Nc1nc(Nc3cccc(F)c3C(N)=O)c3cc[nH]c3n1)N(C(=O)CN1CCN(C(C)C)CC1)CC2`
2.85

---

Target: Protein kinase C beta type (Homo sapiens);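 note: PKC-beta1 splice variant of the enzyme, figure reported as mean inhibition, measured within the GSK PKIS kinase profiling panel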
Conditions: at 0.1 µM
Description: GSK_PKIS: PKC-beta1 (splice variant) mean inhibition at 0.1 uM [Nanosyn]
Exercise: for every item that follows, state its recorded inhibition.
Numbers only, in %.

Consider the worked cases shown below.
{"MOLECULE": "O=C(Nc1n[nH]c2nnc(-c3cccnc3)cc12)C1CC1", "QUANTITATIVE_RESULT": -0.7}
{"MOLECULE": "COc1ccc2ncn(-c3cc(O[C@H](C)c4ccccc4C(F)(F)F)c(C(N)=O)s3)c2c1", "QUANTITATIVE_RESULT": 0.44}
{"MOLECULE": "CN1CCC(n2cnc(-c3ccc(F)cc3)c2-c2ccnc(NCCO)n2)CC1", "QUANTITATIVE_RESULT": 0.78}
{"MOLECULE": "N#Cc1ccc2c(-c3ccnc(NC4CC4)n3)c(-c3ccc(F)cc3)nn2c1", "QUANTITATIVE_RESULT": -1.19}
{"MOLECULE": "Cc1c2ccc(N(C)c3ccnc(Nc4cccc(S(N)(=O)=O)c4)n3)cc2nn1C", "QUANTITATIVE_RESULT": 0.1}

Return reported inhibition values for all items listed beneath this line.
1. O=C(O[C@H]1CN[C@H](C#Cc2cc3ncnc(Nc4ccc5c(cnn5Cc5ccccc5)c4)c3s2)C1)N1CCOCC1
2. NS(=O)(=O)c1ccc(N/N=C2\C(=O)Nc3cccc(CCc4ccncc4)c32)cc1
3. Cc1cc(O)cc(C)c1/C=C/c1cncc(C(N)=O)c1
4. CC1=C(C(=O)Nc2ccc3[nH]nc(C)c3c2)C(c2ccc(C(F)(F)F)cc2)CC(=O)N1 (centres undefined)
5. COc1cccc(Nc2nccc(-c3cnn4ncccc34)n2)c1
6. CCCNc1cccc(-n2ncc3c(N/N=C/c4ccncc4)ncnc32)c1
7. OCCCNc1nccc(-c2c(-c3ccc(F)cc3)nn3cc(C(F)(F)F)ccc23)n1

1. -0.18
2. -0.59
3. -0.18
4. -0.41
5. 0.55
6. 1.35
7. 3.23

Return reported inhibition values for all items listed beneath this line.
1. NS(=O)(=O)c1cccc(N/C=C2\C(=O)Nc3ccccc32)c1
2. Cn1c(-c2nonc2N)nc2cnccc21
3. COc1ccc(-c2nn3ncccc3c2-c2ccnc(Nc3ccc(F)c(F)c3)n2)cc1
4. Fc1cccc(COc2ccc(Nc3ncncc3C#Cc3ccccc3)cc2Cl)c1

[-0.22, 7.33, 1.53, 1.01]

Return reported inhibition values for all items listed beneath this line.
1. O=C(O[C@H]1CN[C@H](C#Cc2cc3ncnc(Nc4ccc(OCc5cccc(F)c5)c(Cl)c4)c3s2)C1)N1CCOCC1
2. O=C1Nc2ccccc2/C1=C1\CCc2cc(O)ccc21
3. CNC(=O)c1cncc(/C=C/c2ccccc2C)c1

1: 1.43; 2: 0.69; 3: 1.31

---

Target: Homeodomain-interacting protein kinase 1 (Homo sapiens);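 note: values are mean percent inhibition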
Details: at 1 µM
Exercise: for every item that follows, state its recorded inhibition.
Answers are plain numbers, in %.

Consider the worked cases shown below.
{"MOLECULE": "CS(=O)(=O)Nc1ccc(-c2cc(-c3ccccc3)cc(C(N)=O)c2N)cc1", "inhibition (%)": 2.26}
{"MOLECULE": "CC1=C(C(=O)Nc2ccc3[nH]ncc3c2)C(c2ccc(F)cc2)N=C(c2ccc(C(F)(F)F)nc2)N1 (centres undefined)", "inhibition (%)": 2.28}

Return reported inhibition values for all items listed beneath this line.
1. COc1cc(N2CCN(C(C)C)CC2)ccc1Nc1nc(Nc2cccc3ncccc23)c2cc[nH]c2n1
2. COC(=O)Nc1nc2cc(Oc3ccc(NC(=O)Nc4ccccc4)cc3)ccc2[nH]1
3. Fc1ccc(Nc2nccc(-c3c(-c4ccc(C(F)(F)F)cc4)nn4ncccc34)n2)cc1F

1: 3.6; 2: 2.14; 3: 4.43

Return reported inhibition values for all items listed beneath this line.
1. CN(C)CCNC(=O)Nc1ccc(N(C)c2ccnc(Nc3ccc(CS(C)(=O)=O)cc3)n2)cc1
2. Fc1cccc(COc2ccc(Nc3ncncc3C#Cc3ccccc3)cc2Cl)c1
3. N#Cc1ccc2c(-c3ccnc(NC4CC4)n3)c(-c3ccc(F)cc3)nn2c1
4. CCn1c(-c2nonc2N)nc2cncc(C(=O)NCCNC)c21

[4.6, 4.2, 0.75, 10.2]

---

Exercise: for every item that follows, state its recorded inhibition.
Molecular target: Epidermal growth factor receptor (Homo sapiens) (UniProt P00533);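 note: values are mean inhibition figures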
Sequence (P00533 whole entry): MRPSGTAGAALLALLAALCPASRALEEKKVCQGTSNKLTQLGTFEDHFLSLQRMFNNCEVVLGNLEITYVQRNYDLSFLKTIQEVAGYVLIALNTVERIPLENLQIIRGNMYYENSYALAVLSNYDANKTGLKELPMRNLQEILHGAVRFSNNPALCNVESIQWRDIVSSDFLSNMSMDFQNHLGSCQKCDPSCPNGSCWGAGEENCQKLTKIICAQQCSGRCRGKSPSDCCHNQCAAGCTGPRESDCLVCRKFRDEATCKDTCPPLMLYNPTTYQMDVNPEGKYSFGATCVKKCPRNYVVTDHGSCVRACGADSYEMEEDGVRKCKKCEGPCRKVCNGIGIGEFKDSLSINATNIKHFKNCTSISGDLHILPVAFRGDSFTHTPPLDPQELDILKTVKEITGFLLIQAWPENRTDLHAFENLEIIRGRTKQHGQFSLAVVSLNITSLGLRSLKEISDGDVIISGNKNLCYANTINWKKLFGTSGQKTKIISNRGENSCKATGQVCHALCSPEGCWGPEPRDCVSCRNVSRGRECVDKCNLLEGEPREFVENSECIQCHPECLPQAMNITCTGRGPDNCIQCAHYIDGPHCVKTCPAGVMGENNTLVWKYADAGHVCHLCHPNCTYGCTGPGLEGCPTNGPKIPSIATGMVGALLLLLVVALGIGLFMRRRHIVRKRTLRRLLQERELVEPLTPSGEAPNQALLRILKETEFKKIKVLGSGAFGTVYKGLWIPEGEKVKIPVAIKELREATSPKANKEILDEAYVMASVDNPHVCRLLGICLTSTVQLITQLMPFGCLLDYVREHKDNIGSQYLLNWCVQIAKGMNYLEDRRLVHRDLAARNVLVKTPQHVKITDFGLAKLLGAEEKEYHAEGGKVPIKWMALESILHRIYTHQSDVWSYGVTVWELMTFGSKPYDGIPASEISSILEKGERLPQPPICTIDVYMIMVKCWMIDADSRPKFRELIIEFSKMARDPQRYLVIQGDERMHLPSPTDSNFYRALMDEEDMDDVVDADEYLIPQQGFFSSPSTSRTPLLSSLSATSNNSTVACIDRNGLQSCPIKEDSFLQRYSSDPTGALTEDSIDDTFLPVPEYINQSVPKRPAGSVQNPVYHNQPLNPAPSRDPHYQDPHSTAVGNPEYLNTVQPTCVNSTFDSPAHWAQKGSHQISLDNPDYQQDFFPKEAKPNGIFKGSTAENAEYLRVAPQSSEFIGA
Conditions: at 1 µM

Consider the worked cases shown below.
{"SMILES_STRUCTURE": "COc1cc(N2CCN(C(C)C)CC2)ccc1Nc1nc(Nc2cccc3ncccc23)c2cc[nH]c2n1", "RESULT": "2.64%"}
{"SMILES_STRUCTURE": "CS(=O)(=O)Nc1ccc(-c2ccc3c(NC(=O)C4CC4)n[nH]c3c2)cc1", "RESULT": "2.27%"}
{"SMILES_STRUCTURE": "COc1cc(Nc2ncc(-c3ccccc3)o2)cc(OC)c1", "RESULT": "5.26%"}

Return reported inhibition values for all items listed beneath this line.
1. N#Cc1ccc2c(-c3ccnc(NC4CC4)n3)c(-c3ccc(F)cc3)nn2c1
2. c1ccc(-c2n[nH]cc2-c2ccnc(-c3ccc(OCCn4ccnc4)cc3)c2)nc1

1. 13.8%
2. 5.66%

---

Exercise: for every item that follows, state its recorded inhibition.
System: Tyrosine-protein kinase ABL1 (Homo sapiens), P00519 [Y253F]
Conditions: at 0.1 µM
One number for each entry, in %.

Consider the worked cases shown below.
{"COMPOUND": "CNC(=O)c1cncc(/C=C/c2ccccc2C)c1", "inhibition [%]": 6.17}
{"COMPOUND": "NS(=O)(=O)c1cccc(N/C=C2\\C(=O)Nc3ccccc32)c1", "inhibition [%]": 5.67}
{"COMPOUND": "CNC(=O)c1sc(-n2cnc3cc(OC)c(OC)cc32)cc1OCc1ccccc1C(F)(F)F", "inhibition [%]": 2.46}
{"COMPOUND": "N#Cc1cccc(Nc2ncc(-c3ccccc3)o2)c1", "inhibition [%]": 4.28}

Return reported inhibition values for all items listed beneath this line.
1. CC1=C(C(=O)Nc2ccc3[nH]ncc3c2)C(c2ccc(F)cc2)N=C(c2ccc(C(F)(F)F)nc2)N1 (stereo unspecified)
2. COc1ccc(Nc2ncc(-c3ccccc3)o2)cc1OC
3. Fc1ccc(Nc2nccc(-c3c(-c4ccc(C(F)(F)F)cc4)nn4ncccc34)n2)cc1F
4. O=C(O[C@H]1CN[C@H](C#Cc2cc3ncnc(Nc4ccc5c(cnn5Cc5ccccc5)c4)c3s2)C1)N1CCOCC1
5. OCCCNc1nccc(-c2c(-c3ccc(F)cc3)nn3cc(C(F)(F)F)ccc23)n1
6. Cc1cc(O)cc(C)c1/C=C/c1cncc(C(=O)OC(C)(C)C)c1
7. CS(=O)(=O)CCNCc1ccoc1-c1ccc2ncnc(Nc3ccc(OCc4ccccc4)cc3)c2c1

1. 3.86
2. 11.1
3. 3.58
4. -0.26
5. 4.75
6. 9.34
7. 0.71
